Test system: LG0703-F948-PDC complex spheroid viability
Assay: Anticancer human tumor LG0703-F948-PDC patient-derived lung adenocarcinoma cell line growth inhibition [RAS]
Conditions: second compound 0.003 µM; first compound 0.01 µM; stronger effect = lower value
Field: viability, T/C. Provide a value for each of the compounds that follow.
Answers are plain numbers, in %.

Some solved entries appear below for comparison.
COMPOUND	viability, T/C / %
Nc1ccn(C2OC(CO)C(O)C2(F)F)c(=O)n1 (centres undefined) + CCn1c(-c2cc(N3CCN(C)CC3)cnc2C(C)OC)c2c3cc(ccc31)-c1csc(n1)CC(NC(=O)C1CC1C)C(=O)N1CCCC(N1)C(=O)OCC(C)(C)C2	31.9
Nc1ccn(C2OC(CO)C(O)C2(F)F)c(=O)n1 (centres undefined) + CCn1c(-c2cccnc2C(C)OC)c2c3cc(ccc31)N1CCOC(CC(NC(=O)C(C(C)C)N(C)C(=O)C3(F)CCN(C(=O)C#CC(C)(C)N(C)C)CC3)C(=O)N3CCCC(N3)C(=O)OCC(C)(C)C2)C1	48.3
CCN1CCN(Cc2ccc(Nc3ncc(F)c(-c4cc(F)c5nc(C)n(C(C)C)c5c4)n3)nc2)CC1 + CCn1c(-c2cccnc2C(C)OC)c2c3cc(ccc31)N1CCOC(CC(NC(=O)C(C(C)C)N(C)C(=O)C3(F)CCN(C(=O)C#CC(C)(C)N(C)C)CC3)C(=O)N3CCCC(N3)C(=O)OCC(C)(C)C2)C1	97.3

Let us examine a further case.
Sure, the documented viability, T/C for C=CC(=O)Nc1cc(Nc2nccc(-c3cn(C)c4ccccc34)n2)c(OC)cc1N(C)CCN(C)C + CCn1c(-c2cccnc2C(C)OC)c2c3cc(ccc31)N1CCOC(CC(NC(=O)C(C(C)C)N(C)C(=O)C3(F)CCN(C(=O)C#CC(C)(C)N(C)C)CC3)C(=O)N3CCCC(N3)C(=O)OCC(C)(C)C2)C1 is 57.5

----------
Tested on: LG0703-F948-PDC complex spheroid viability
Assay: Anticancer human tumor LG0703-F948-PDC cell line growth inhibition [RAS];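 also: spheroids exposed to agents for 7 days; 100% = DMSO vehicle wells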
Conditions: second compound 0.316 µM; first compound 0.0316 µM; stronger effect = lower value
MEASUREMENT_KIND: viability, T/C (%)
One number for each entry, in %.

Some solved entries appear below for comparison.
COMPOUND	MEASUREMENT_KIND	UNIT_TEXT	READOUT_NUMBER
Nc1ccn(C2OC(CO)C(O)C2(F)F)c(=O)n1 (stereo not given) + C=CC(=O)N1CCN(c2nc(OCC3CCCN3C)nc3c(F)c(-c4nc(N)cc(C)c4C(F)(F)F)c(Cl)cc23)C(C)C1	viability, T/C	%	29.9
CC(=O)OC12COC1CC(O)C1(C)C(=O)C(O)C3=C(C)C(OC(=O)C(O)C(NC(=O)OC(C)(C)C)c4ccccc4)CC(O)(C(OC(=O)c4ccccc4)C21)C3(C)C (stereo not given) + C#Cc1c(F)ccc2cc(O)cc(-c3ncc4c(N5CC6CCC(C5)N6)nc(OCC56CCCN5CC(F)C6)nc4c3F)c12	viability, T/C	%	27.2
NC1c2ccccc2OC12CCN(c1cnc3c(N4CCCc5ncccc54)n[nH]c3n1)CC2 (stereo not given) + C=CC(=O)N1CCN(c2nc(OCC3CCCN3C)nc3c(F)c(-c4nc(N)cc(C)c4C(F)(F)F)c(Cl)cc23)C(C)C1	viability, T/C	%	69.5
CC(C)NCC(C(=O)N1CCN(c2ncnc3c2C(C)CC3O)CC1)c1ccc(Cl)cc1 (stereo not given) + C=CC(=O)N1CCN(c2nc(OCC3CCCN3C)nc3c(F)c(-c4nc(N)cc(C)c4C(F)(F)F)c(Cl)cc23)C(C)C1	viability, T/C	%	103

Sure, the documented viability, T/C for Cc1nc(N2CCC3(CC2)COC(C)C3N)c(CO)nc1Sc1ccnc(N)c1Cl (stereo not given) + C#Cc1c(F)ccc2cc(O)cc(-c3ncc4c(N5CC6CCC(C5)N6)nc(OCC56CCCN5CC(F)C6)nc4c3F)c12 is 68.1
